Target: Kv7.1/KCNE1 (Homo sapiens)
Construct: cRNA encoding Kv7.1 (UniProt: P51787), KCNE1 (UniProt: P15382.1); expressed in transfected cells; host or cells: Xenopus laevis oocytes (cRNA injection, Kv7.1:KCNE1 3:1 by weight)
Experiment: Two-electrode voltage clamp of Kv7.1/KCNE1 expressed in Xenopus oocytes
Format: cell-based
Settings: 7 μM
property label: ΔV0.5 (voltage dependence of activation)

Look up ΔV0.5 (voltage dependence of activation) with Kv7.1/KCNE1 (Homo sapiens) for this molecule: CCCCC/C=C\C/C=C\CCCCCCCC(=O)NCCS(=O)(=O)O
−39.9 ± 3.6 mV

Look up ΔV0.5 (voltage dependence of activation) with Kv7.1/KCNE1 (Homo sapiens) for this molecule: CCCCC/C=C\C/C=C\CC/C=C\CCCC(=O)NCCS(=O)(=O)O
−23.8 ± 2.7 mV

Look up ΔV0.5 (voltage dependence of activation) with Kv7.1/KCNE1 (Homo sapiens) for this molecule: CCCCC/C=C\C/C=C\CCCCCCCC(=O)NCC(=O)O
−23.8 ± 1.6 mV

Look up ΔV0.5 (voltage dependence of activation) with Kv7.1/KCNE1 (Homo sapiens) for this molecule: CC/C=C\C/C=C\C/C=C\C/C=C\C/C=C\C/C=C\CCC(=O)NCC(=O)O
−10.5 ± 1.0 mV

Look up ΔV0.5 (voltage dependence of activation) with Kv7.1/KCNE1 (Homo sapiens) for this molecule: CC/C=C\C/C=C\C/C=C\C/C=C\C/C=C\C/C=C\CCC(=O)NCCS(=O)(=O)O
−45.3 ± 2.9 mV

* * *

Target: Nav1.5/β1 (Homo sapiens, UniProt Q14524)
Construct: Nav1.5 (UniProt: Q14524.1); expressed in transfected cells; host or cells: Xenopus laevis oocytes (cRNA injection, Nav1.5:β1 2:1 by weight)
Sequence (Q14524 whole entry): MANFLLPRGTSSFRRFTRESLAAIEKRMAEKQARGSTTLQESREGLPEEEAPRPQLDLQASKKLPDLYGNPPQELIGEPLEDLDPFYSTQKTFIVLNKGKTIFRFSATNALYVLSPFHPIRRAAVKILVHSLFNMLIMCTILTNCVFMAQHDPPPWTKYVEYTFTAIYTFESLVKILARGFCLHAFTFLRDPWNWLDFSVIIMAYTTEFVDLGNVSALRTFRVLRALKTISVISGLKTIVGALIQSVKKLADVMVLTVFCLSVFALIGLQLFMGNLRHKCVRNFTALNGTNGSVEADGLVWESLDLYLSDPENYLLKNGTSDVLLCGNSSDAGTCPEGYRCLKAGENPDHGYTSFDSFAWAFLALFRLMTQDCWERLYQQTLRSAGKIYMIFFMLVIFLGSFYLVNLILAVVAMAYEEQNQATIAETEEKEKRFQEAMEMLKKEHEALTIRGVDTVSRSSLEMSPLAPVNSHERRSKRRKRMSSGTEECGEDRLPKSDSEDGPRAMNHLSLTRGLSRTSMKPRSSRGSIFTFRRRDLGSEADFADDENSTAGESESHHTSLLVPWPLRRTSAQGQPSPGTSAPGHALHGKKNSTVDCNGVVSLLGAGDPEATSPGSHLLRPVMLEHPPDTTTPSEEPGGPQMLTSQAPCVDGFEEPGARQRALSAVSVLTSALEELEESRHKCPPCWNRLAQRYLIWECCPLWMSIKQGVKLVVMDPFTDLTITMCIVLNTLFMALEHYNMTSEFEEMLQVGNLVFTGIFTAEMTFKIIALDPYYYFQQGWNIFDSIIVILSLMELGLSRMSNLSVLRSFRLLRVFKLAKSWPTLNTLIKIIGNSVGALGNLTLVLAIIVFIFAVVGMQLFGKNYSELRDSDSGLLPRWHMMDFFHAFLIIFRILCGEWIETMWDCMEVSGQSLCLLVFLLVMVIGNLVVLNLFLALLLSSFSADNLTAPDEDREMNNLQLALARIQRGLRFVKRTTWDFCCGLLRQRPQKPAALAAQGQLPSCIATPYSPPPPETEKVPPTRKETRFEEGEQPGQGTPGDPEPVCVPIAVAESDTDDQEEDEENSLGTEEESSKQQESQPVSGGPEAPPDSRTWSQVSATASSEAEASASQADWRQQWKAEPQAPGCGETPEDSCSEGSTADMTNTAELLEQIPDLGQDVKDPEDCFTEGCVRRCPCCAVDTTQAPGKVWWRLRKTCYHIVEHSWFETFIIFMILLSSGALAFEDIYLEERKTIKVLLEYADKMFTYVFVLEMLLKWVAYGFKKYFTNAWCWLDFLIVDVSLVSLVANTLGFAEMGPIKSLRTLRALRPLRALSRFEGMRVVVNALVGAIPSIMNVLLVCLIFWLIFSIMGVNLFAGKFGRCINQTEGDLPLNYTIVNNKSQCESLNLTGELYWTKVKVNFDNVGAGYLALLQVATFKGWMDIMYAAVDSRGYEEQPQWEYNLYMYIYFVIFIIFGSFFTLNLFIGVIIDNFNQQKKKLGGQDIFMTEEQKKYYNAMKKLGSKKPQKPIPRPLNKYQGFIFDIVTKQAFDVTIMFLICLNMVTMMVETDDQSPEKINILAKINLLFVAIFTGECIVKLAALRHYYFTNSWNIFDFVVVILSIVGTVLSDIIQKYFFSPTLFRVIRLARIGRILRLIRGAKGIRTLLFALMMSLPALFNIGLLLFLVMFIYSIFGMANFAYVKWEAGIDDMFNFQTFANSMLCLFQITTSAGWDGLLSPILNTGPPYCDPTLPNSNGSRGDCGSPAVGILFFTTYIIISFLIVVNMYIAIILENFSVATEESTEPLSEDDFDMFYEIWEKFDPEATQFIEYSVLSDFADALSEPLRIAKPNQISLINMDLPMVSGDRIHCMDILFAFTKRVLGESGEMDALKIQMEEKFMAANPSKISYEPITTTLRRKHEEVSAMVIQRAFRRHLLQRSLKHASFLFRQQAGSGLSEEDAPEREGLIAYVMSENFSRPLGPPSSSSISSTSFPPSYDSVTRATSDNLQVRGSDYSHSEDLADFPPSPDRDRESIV
Sequence (Q07699 19-218 partner): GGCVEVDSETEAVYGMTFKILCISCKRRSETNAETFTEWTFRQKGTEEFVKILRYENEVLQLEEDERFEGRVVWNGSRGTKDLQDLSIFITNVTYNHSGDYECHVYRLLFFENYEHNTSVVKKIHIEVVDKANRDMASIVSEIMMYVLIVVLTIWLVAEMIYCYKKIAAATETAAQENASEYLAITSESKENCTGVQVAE
Assay: Two-electrode voltage clamp of Nav1.5/β1 expressed in Xenopus oocytes
Type: cell-based
Conditions: 2 μM
Procedure: Molecular Biology cRNA encoding Kv7.1 (UniProt: P51787), KCNE1 (UniProt: P15382.1), Nav1.5 (UniProt: Q14524.1), Nav β1 (UniProt: […]), Nav β3 (UniProt: […]), Cav1.2 (GenBank: CAA84346), Cav β3 (Uniprot: P54286), Cav β2 (Uniprot: P54288), and Cav α2δ (Uniprot: P13806) were transcribed using the mMessage mMachine T7 kit (Ambion). […] Xenopus laevis oocytes were recorded in the two-electrode voltage clamp (TEVC) configuration. […]
Exercise: state measured Gmax/Gmax0 for each of the compounds provided.

What does the data say about its Gmax/Gmax0? Entry: CCCCC/C=C\C/C=C\CCCCCCCC(=O)NCC(=O)O [Lin-glycine]
0.9 ± 0.06

What does the data say about its Gmax/Gmax0? Entry: CC/C=C\C/C=C\C/C=C\C/C=C\C/C=C\C/C=C\CCC(=O)NCCS(=O)(=O)O [DHA-taurine]
0.6 ± 0.03

What does the data say about its Gmax/Gmax0? Entry: CCCCC/C=C\C/C=C\CC/C=C\CCCC(=O)NCCS(=O)(=O)O [Pin-taurine]
1.0 ± 0.1

* * *

Target: Nav1.5/β1 (Homo sapiens)
Construct: Nav1.5 (UniProt: Q14524.1); expressed in transfected cells; host or cells: Xenopus laevis oocytes (cRNA injection, Nav1.5:β1 2:1 by weight)
Test: Two-electrode voltage clamp of Nav1.5/β1 expressed in Xenopus oocytes
Type: cell-based
Details: 2 μM; relative current at 0 mV
Decision: INa I/I0 compared against 0.9; not below it gives met, below it gives not met.

Does the compound CCCCC/C=C\C/C=C\CCCCCCCC(=O)NCCS(=O)(=O)O have recorded INa I/I0 that is 0.9 or more?
not met

Does the compound CCCCC/C=C\C/C=C\CC/C=C\CCCC(=O)NCC(=O)O have recorded INa I/I0 that is 0.9 or more?
met

Does the compound CC/C=C\C/C=C\C/C=C\C/C=C\C/C=C\C/C=C\CCC(=O)NCCS(=O)(=O)O have recorded INa I/I0 that is 0.9 or more?
not met

Does the compound CC/C=C\C/C=C\C/C=C\C/C=C\C/C=C\C/C=C\CCC(=O)NCC(=O)O have recorded INa I/I0 that is 0.9 or more?
met

Does the compound CCCCC/C=C\C/C=C\C/C=C\C/C=C\CCCC(=O)NCCS(=O)(=O)O have recorded INa I/I0 that is 0.9 or more?
not met

Does the compound CCCCC/C=C\C/C=C\CC/C=C\CCCC(=O)NCCS(=O)(=O)O have recorded INa I/I0 that is 0.9 or more?
met
